System: Escherichia coli TOP10;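 note: peptides expressed intracellularly from a pBAD plasmid library in pooled LB shake-flask culture, induced with 0.3% L-arabinose, DNA abundance read by NGS, three biological replicates, DESeq2 with apeglm shrinkage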
assay.comment: shrunken log2 fold change of peptide-encoding DNA abundance (4.5 h post-induction vs induction); higher = less antimicrobial activity (less host growth inhibition)
condition.summary: time post-induction: 4.5 h; library: site-saturation at positions 5, 18, 19, 20
Please go through the items and note down their shrunken log2 fold change.
One number for each entry.

[[record]]
record_sequence = "RRIRKRPPRLPRPRPRPPRSPRP"
observed_value = 2.69

[[record]]
record_sequence = "RRIRPRPPRLPRPRPRPRKVPRP"
observed_value = 0.00959

[[record]]
record_sequence = "RRIRVRPPRLPRPRPRPLWSPRP"
observed_value = -0.0257

[[record]]
record_sequence = "RRIRERPPRLPRPRPRPGYLPRP"
observed_value = -0.426

[[record]]
record_sequence = "RRIRGRPPRLPRPRPRPCWKPRP"
observed_value = 0.175

[[record]]
record_sequence = "RRIRNRPPRLPRPRPRPNENPRP"
observed_value = 0.215

[[record]]
record_sequence = "RRIRKRPPRLPRPRPRPHTDPRP"
observed_value = -0.0857

[[record]]
record_sequence = "RRIRLRPPRLPRPRPRPGVNPRP"
observed_value = 0.0348


Record shrunken log2 fold change per entry; entries follow.
1. RRIRMRPPRLPRPRPRPMNAPRP
2. RRIRFRPPRLPRPRPRPEISPRP
3. RRIRTRPPRLPRPRPRPNYHPRP

Found:
-0.0277
-0.048
-1.14

For each of the items listed, what is its shrunken log2 fold change?
1. RRIRCRPPRLPRPRPRPQNTPRP
2. RRIRERPPRLPRPRPRPHCKPRP

Found:
-0.691
-1.07

Batch lookup, shrunken log2 fold change per entry.
1. RRIRMRPPRLPRPRPRPWFQPRP
2. RRIRGRPPRLPRPRPRPNMHPRP
3. RRIRVRPPRLPRPRPRPKQKPRP
4. RRIRTRPPRLPRPRPRPLGHPRP
5. RRIRQRPPRLPRPRPRPDTPPRP
6. RRIRCRPPRLPRPRPRPSRYPRP
7. RRIRFRPPRLPRPRPRPSILPRP

Found:
0.134
0.563
-0.0521
-0.459
-0.039
-0.285
-0.442

I would be grateful if you could provide shrunken log2 fold change for each of the following entries.
1. RRIRQRPPRLPRPRPRPLQRPRP
2. RRIRSRPPRLPRPRPRPTGYPRP
3. RRIRWRPPRLPRPRPRPAPHPRP
4. RRIRFRPPRLPRPRPRPYRRPRP

Found:
1. -0.0166
2. 0.0189
3. 0.491
4. -0.506

The following sequences each have a reported value; give each one's shrunken log2 fold change.
1. RRIRYRPPRLPRPRPRPVDTPRP
2. RRIRCRPPRLPRPRPRPTRIPRP
3. RRIRCRPPRLPRPRPRPEGRPRP
4. RRIRYRPPRLPRPRPRPFNWPRP
5. RRIRSRPPRLPRPRPRPMYHPRP

Found:
-0.204
0.258
0.0128
-0.238
-0.762

Give measured shrunken log2 fold change for every item shown.
1. RRIRTRPPRLPRPRPRPSHNPRP
2. RRIRARPPRLPRPRPRPHVCPRP
3. RRIRLRPPRLPRPRPRPCANPRP

Found:
1: -0.681; 2: -0.297; 3: -0.212

Data credit: the supplement of paper PMC9112550
